System: 435261-313-R-J1-PDC complex spheroid viability
Assay: Anticancer human tumor 435261-313-R-J1-PDC patient-derived colon adenocarcinoma cell line growth inhibition [GQUAD]
Conditions: second compound 0.1 µM; first compound 0.0999 µM; active compounds read low
I'd appreciate it if you could supply viability, T/C values for the items below.
Give bare numbers, in %.

Sample answers from the record:
CC[C@@]1(O)C(=O)OCc2c1cc1n(c2=O)Cc2cc3c(CN(C)C)c(O)ccc3nc2-1 + CN(C)c1ccc(Nc2c3ccc(NC(=O)CCN4CCCC4)cc3nc3cc(NC(=O)CCN4CCCC4)ccc23)cc1 ... 76.1
Cn1ncnc1[C@H]1c2n[nH]c(=O)c3cc(F)cc(c23)N[C@@H]1c1ccc(F)cc1 + Cc1[nH]c2ccc(F)cc2c1-c1nc2c3cccnc3c3ncccc3c2[nH]1 ... 99.5
CC[C@@]1(O)C(=O)OCc2c1cc1n(c2=O)Cc2cc3c(CN(C)C)c(O)ccc3nc2-1 + Cc1[nH]c2ccc(F)cc2c1-c1nc2c3cccnc3c3ncccc3c2[nH]1 ... 72.8
CCc1c2c(nc3ccc(O)cc13)-c1cc3c(c(=O)n1C2)COC(=O)[C@]3(O)CC + Cc1[nH]c2ccc(F)cc2c1-c1nc2c3cccnc3c3ncccc3c2[nH]1 ... 46.5

**Q:** Return reported viability, T/C. Input molecule: CC[C@@]1(O)C(=O)OCc2c1cc1n(c2=O)Cc2cc3c(CN(C)C)c(O)ccc3nc2-1 + Cc1cnc(CNC(=O)c2c(=O)c3ccc(N4CCCN(C)CC4)nc3n3c2sc2ccccc23)cn1
**A:** 63.2

---

Test system: 435261-313-R-J1-PDC complex spheroid viability
Experiment: Anticancer human tumor 435261-313-R-J1-PDC cell line growth inhibition [GQUAD];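 further: spheroids exposed to the agents for seven days before readout; percent of vehicle control viability with DMSO wells as 100%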
Settings: second compound 3.16 µM; first compound 0.1 µM; active compounds read low
measurement_label: viability, T/C (%)
Numbers only, in %.

Sample answers from the record:
Cc1cccc(N(C)C(=O)C2C(O)CCN2c2nc(C)cc(C(F)(F)F)c2C#N)c1 (stereo not drawn) + Cc1cnc(CNC(=O)c2c(=O)c3ccc(N4CCCN(C)CC4)nc3n3c2sc2ccccc23)cn1 ... 21
O=C(c1cc(Cc2n[nH]c(=O)c3ccccc23)ccc1F)N1CCN(C(=O)C2CC2)CC1 + Cc1cnc(CNC(=O)c2c(=O)c3ccc(N4CCCN(C)CC4)nc3n3c2sc2ccccc23)cn1 ... 9.89

**Q:** Return reported viability, T/C. Input compound: CC(C)(O)C1CCC(Nc2ccc3ncc(-c4cccc(C(F)(F)F)c4)n3n2)CC1 (stereo not drawn) + Cc1[nH]c2ccc(F)cc2c1-c1nc2c3cccnc3c3ncccc3c2[nH]1
**A:** 19.2

---

System: 435261-313-R-J1-PDC complex spheroid viability
Experiment: Anticancer human tumor 435261-313-R-J1-PDC cell line growth inhibition [GQUAD]; active = viability on the fitted dose curve at most 10% of control; inactive = the rest;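 further: spheroids exposed to the agents for seven days before readout; percent of vehicle control viability with DMSO wells as 100%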
Conditions: second compound 10 µM; first compound 0.316 µM
Could you please pick one outcome from this set? true (1) = active, false (0) = inactive

CC[C@@]1(O)C(=O)OCc2c1cc1n(c2=O)Cc2cc3c(CN(C)C)c(O)ccc3nc2-1 + Cc1cnc(CNC(=O)c2c(=O)c3ccc(N4CCCN(C)CC4)nc3n3c2sc2ccccc23)cn1 ... true (1)
Nc1ccn(C2OC(CO)C(O)C2(F)F)c(=O)n1 (stereo not given) + Cc1cnc(CNC(=O)c2c(=O)c3ccc(N4CCCN(C)CC4)nc3n3c2sc2ccccc23)cn1 ... true (1)
CC1COCCN1c1cc(C2(S(C)(=N)=O)CC2)nc(-c2ccnc3[nH]ccc23)n1 (stereo not given) + Cc1[nH]c2ccc(F)cc2c1-c1nc2c3cccnc3c3ncccc3c2[nH]1 ... false (0)
O=C(c1cc(Cc2n[nH]c(=O)c3ccccc23)ccc1F)N1CCN(C(=O)C2CC2)CC1 + Cc1cnc(CNC(=O)c2c(=O)c3ccc(N4CCCN(C)CC4)nc3n3c2sc2ccccc23)cn1 ... true (1)
CC[C@@]1(O)C(=O)OCc2c1cc1n(c2=O)Cc2cc3c(CN(C)C)c(O)ccc3nc2-1 + Cc1[nH]c2ccc(F)cc2c1-c1nc2c3cccnc3c3ncccc3c2[nH]1 ... false (0)
Cc1cccc(N(C)C(=O)C2C(O)CCN2c2nc(C)cc(C(F)(F)F)c2C#N)c1 (stereo not given) + CN(C)c1ccc(Nc2c3ccc(NC(=O)CCN4CCCC4)cc3nc3cc(NC(=O)CCN4CCCC4)ccc23)cc1 ... false (0)
Cn1ncnc1[C@H]1c2n[nH]c(=O)c3cc(F)cc(c23)N[C@@H]1c1ccc(F)cc1 + Cc1cnc(CNC(=O)c2c(=O)c3ccc(N4CCCN(C)CC4)nc3n3c2sc2ccccc23)cn1 ... true (1)
CC(=O)O[C@H]1C(=O)[C@@]2(C)[C@H]([C@H](OC(=O)c3ccccc3)[C@]3(O)C[C@H](OC(=O)[C@H](O)[C@@H](NC(=O)c4ccccc4)c4ccccc4)C(C)=C1C3(C)C)[C@]1(OC(C)=O)CO[C@@H]1C[C@@H]2O + CN(C)c1ccc(Nc2c3ccc(NC(=O)CCN4CCCC4)cc3nc3cc(NC(=O)CCN4CCCC4)ccc23)cc1 ... false (0)

**Q:** Field: outcome | Entry: C=CCn1c(=O)c2cnc(Nc3ccc(N4CCN(C)CC4)cc3)nc2n1-c1cccc(C(C)(C)O)n1 + Cc1cnc(CNC(=O)c2c(=O)c3ccc(N4CCCN(C)CC4)nc3n3c2sc2ccccc23)cn1
**A:** true (1)

**Q:** Field: outcome | Entry: CC(=O)O[C@H]1C(=O)[C@@]2(C)[C@H]([C@H](OC(=O)c3ccccc3)[C@]3(O)C[C@H](OC(=O)[C@H](O)[C@@H](NC(=O)c4ccccc4)c4ccccc4)C(C)=C1C3(C)C)[C@]1(OC(C)=O)CO[C@@H]1C[C@@H]2O + Cc1[nH]c2ccc(F)cc2c1-c1nc2c3cccnc3c3ncccc3c2[nH]1
**A:** false (0)

---

I'd appreciate it if you could supply viability, T/C values for the items below.
System: 435261-313-R-J1-PDC complex spheroid viability
Assay: Anticancer human tumor 435261-313-R-J1-PDC cell line growth inhibition [GQUAD];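 further: spheroids exposed to the agents for seven days before readout; percent of vehicle control viability with DMSO wells as 100%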
Settings: second compound 1 µM; first compound 0.1 µM; active compounds read low

CC1COCCN1c1cc(C2(O)CC3CCC(C2)O3)c2cnn(-c3ccn[nH]3)c2n1 (stereo not given) + Cc1cnc(CNC(=O)c2c(=O)c3ccc(N4CCCN(C)CC4)nc3n3c2sc2ccccc23)cn1 ... 36.1%

Below are 8 compounds. Give each one its viability, T/C.
1. CC(=O)O[C@H]1C(=O)[C@@]2(C)[C@H]([C@H](OC(=O)c3ccccc3)[C@]3(O)C[C@H](OC(=O)[C@H](O)[C@@H](NC(=O)c4ccccc4)c4ccccc4)C(C)=C1C3(C)C)[C@]1(OC(C)=O)CO[C@@H]1C[C@@H]2O + Cc1cnc(CNC(=O)c2c(=O)c3ccc(N4CCCN(C)CC4)nc3n3c2sc2ccccc23)cn1
2. CC1COCCN1c1cc(C2(S(C)(=N)=O)CC2)nc(-c2ccnc3[nH]ccc23)n1 (stereo not given) + CN(C)c1ccc(Nc2c3ccc(NC(=O)CCN4CCCC4)cc3nc3cc(NC(=O)CCN4CCCC4)ccc23)cc1
3. COc1ncnc(C2CC2)c1-c1ncc2cnn(Cc3ccc(-c4nc(C(F)(F)F)cn4C(C)C)cc3)c2n1 + CN(C)c1ccc(Nc2c3ccc(NC(=O)CCN4CCCC4)cc3nc3cc(NC(=O)CCN4CCCC4)ccc23)cc1
4. Nc1ccn(C2OC(CO)C(O)C2(F)F)c(=O)n1 (stereo not given) + CN(C)c1ccc(Nc2c3ccc(NC(=O)CCN4CCCC4)cc3nc3cc(NC(=O)CCN4CCCC4)ccc23)cc1
5. CC1COCCN1c1cc(C2(S(C)(=N)=O)CC2)nc(-c2ccnc3[nH]ccc23)n1 (stereo not given) + Cc1[nH]c2ccc(F)cc2c1-c1nc2c3cccnc3c3ncccc3c2[nH]1
6. Cc1cccc(N(C)C(=O)C2C(O)CCN2c2nc(C)cc(C(F)(F)F)c2C#N)c1 (stereo not given) + CN(C)c1ccc(Nc2c3ccc(NC(=O)CCN4CCCC4)cc3nc3cc(NC(=O)CCN4CCCC4)ccc23)cc1
7. O=c1[nH]cc(F)c(=O)[nH]1 + Cc1cnc(CNC(=O)c2c(=O)c3ccc(N4CCCN(C)CC4)nc3n3c2sc2ccccc23)cn1
8. CC(C)(O)C1CCC(Nc2ccc3ncc(-c4cccc(C(F)(F)F)c4)n3n2)CC1 (stereo not given) + Cc1[nH]c2ccc(F)cc2c1-c1nc2c3cccnc3c3ncccc3c2[nH]1

**A:**
41.5%
115%
70.8%
78.2%
65.6%
95.5%
45.9%
61%

**Q:** Return reported viability, T/C. Input compound: CCCS(=O)(=O)Nc1ccc(F)c(C(=O)c2c[nH]c3ncc(-c4ccc(Cl)cc4)cc23)c1F + CN(C)c1ccc(Nc2c3ccc(NC(=O)CCN4CCCC4)cc3nc3cc(NC(=O)CCN4CCCC4)ccc23)cc1
**A:** 90.7%
